Property label: melting point

Compound: COc1cc(/C=C/C(O)=C/C(=O)/C=C/c2ccc(OC(=O)C(C)(CO)CO)c(OC)c2)ccc1O [Compound 21b]
Value: 104 to 105 °C
--
Compound: CC(CO)(CO)C(=O)Oc1ccc(/C=C/C(=O)/C=C(O)/C=C/c2ccc(OC(=O)C(C)(CO)CO)cc2)cc1 [Compound 23a]
Value: 192 to 194 °C
--
Compound: COc1ccc(/C=C/C(=O)CC(=O)/C=C/c2ccc(OC)c(OC(=O)C(C)(CO)CO)c2)cc1OC(=O)C(C)(CO)CO [Compound 24a]
Value: 194 to 196 °C
--
Compound: CCC(CC)(C(=O)/C=C/c1ccc(OC(=O)C(C)(CO)CO)c(OC)c1)C(=O)/C=C/c1ccc(OC(=O)C(C)(CO)CO)c(OC)c1 [Compound 35b]
Value: 189 to 191 °C
--
Compound: C=CCC(CC=C)(C(=O)/C=C/c1ccc(OC(=O)C(C)(CO)CO)c(OC)c1)C(=O)/C=C/c1ccc(OC(=O)C(C)(CO)CO)c(OC)c1 [Compound 35e]
Value: 195 to 197 °C
--
Compound: COc1cc(/C=C/C(=O)C(CO)(CO)C(=O)/C=C/c2ccc(OC(=O)C(C)(CO)CO)c(OC)c2)ccc1OC(=O)C(C)(CO)CO
Value: 234 to 237 °C
--
Compound: CCOc1cc(/C=C/C(=O)/C=C(O)/C=C/c2ccc(OC(=O)C(C)(CO)CO)c(OCC)c2)ccc1OC(=O)C(C)(CO)CO
Value: 153 to 155 °C
--
Compound: COc1ccc(/C=C/C(O)=C/C(=O)/C=C/c2ccc(OC(=O)C(C)(CO)CO)c(OC)c2)cc1OC
Value: 99 to 101 °C
--
Compound: COc1ccc(/C=C/C(=O)CC(=O)/C=C/c2ccc(OC)c(OC(=O)C(C)(CO)CO)c2)cc1O [Compound 24b]
Value: 184 to 186 °C
--
Compound: CCC(CO)(CO)C(=O)Oc1ccc(/C=C/C(=O)/C=C(O)/C=C/c2ccc(O)c(OC)c2)cc1OC [Compound 22b]
Value: 82 to 83 °C
--
Compound: CCOc1cc(/C=C/C(=O)/C=C(O)/C=C/c2ccc(OC(=O)C(CC)(CO)CO)c(OCC)c2)ccc1OC(=O)C(CC)(CO)CO
Value: 161 to 162 °C
--
Compound: CC(CO)(CO)C(=O)Oc1ccc(/C=C/C(=O)/C=C(O)/C=C/c2ccc(O)cc2)cc1 [Compound 23b]
Value: 206 to 208 °C

Values from patent US10787413B2
